- Target or test system: T1, pig CD47 (pig, UniProt Q9GKE8 19-303)
- T1 construct: whole, on cells; also called CD47 on pig red blood cells
- T1 sequence (looked up): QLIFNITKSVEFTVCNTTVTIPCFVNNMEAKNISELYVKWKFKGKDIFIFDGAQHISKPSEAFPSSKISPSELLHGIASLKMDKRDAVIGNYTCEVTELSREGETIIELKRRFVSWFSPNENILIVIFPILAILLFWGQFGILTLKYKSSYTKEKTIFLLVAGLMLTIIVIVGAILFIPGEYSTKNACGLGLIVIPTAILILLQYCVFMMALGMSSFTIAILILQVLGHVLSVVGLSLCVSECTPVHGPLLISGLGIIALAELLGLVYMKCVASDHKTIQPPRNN
- Method notes: flow cytometry on RBCs, antibody 10 ng/ml
Attribute measured: mean fluorescence relative to chimeric antibody

-- ask Endpoint output: mean fluorescence relative to chimeric antibody of pVxK7b-037-hum05-LC/pVxK7b-037-hum05-HC (antibody, human IgG1, V domains shown, Full-length human IgG1/kappa in CHO supernatant; Variable entries end within framework 4 (...FGQG / ...WGQG); also called Clone 5) VH: QVQLQESGPGLVKPSQTLSLTCTVSGYTFTNYYVFWVRQAPGKGLEWVSDINPVNGDTNFNEKFKNRVTISVDTSKNQFSLKLSSVTAADTAVYYCARGGYTMDYWGQG VL: DIVMTQTPLSLPVTPGEPASISCRSSQSLVHSNGNTYLHWYLQKPGQSPQLLIYKVSYRFSGVPDRFSGSGSGTDFTLKISRVEAEDVGVYYCSQNTHVPRTFGQG . Value?
-- reply 1.2 fold of chimera
